Entry source: PubChem BioAssay AID1850

assay_info: PhoP regulon inhibitors, Salmonella typhi PhoP promoter GFP reporter, confirmatory (AID 1850);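 also: 0% = induced wells with vehicle and 100% = uninduced wells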
condition_parameters: fluorescence, 4 h, at 50 µM, hits give high values
Among all 310,000 compounds or so, about 1,000 (0.32%) were called active. Not all results are given here. Entries with a potency or affinity are not part of this list.
Would you mind telling me the reported inhibition of each entry?

In: I would be grateful if you could share the reported inhibition for CC(C)(C)OC(=O)N[C@@H](Cc1ccccc1)C(=O)N1CCC(C(=O)N[C@@H](CCC(N)=O)C(=O)O)CC1 .
Out: -2.12% (inactive)

In: Same for CC1=C(C(=O)OC(C)C)C(c2ccc(C)o2)C(C(=O)OC(C)C)=C(C)N1
Out: 6.14% (inactive)

In: What do you get for O=P(O)(Oc1ccccc1)OC(c1ccccc1)C(F)(F)C(F)(F)F (stereo unspecified) ?
Out: 5.37% (inactive)

In: Further, for COc1cccc(CN2CC(C(=O)NC3CCC3)CCC2=O)c1 (stereo unspecified) ?
Out: -3.12% (inactive)

In: Can you check Cc1ccc2nsnc2c1S(=O)(=O)NCc1ccncc1 next?
Out: -2.24% (inactive)

In: Also check c1ccc(C[C@H]2CNCCN2CC2(c3ccccc3)CC2)cc1
Out: -6.5% (inactive)

In: Param item: C=CCN(c1nc(C)cc(OC)n1)S(=O)(=O)c1ccc(C)cc1
Out: 0.2% (inactive)

In: What about COc1ccc(C(=O)O/N=C(/c2ccccc2)c2ccncc2)cc1OC ?
Out: -4.7% (inactive)

In: Now consider COCCCNC(=O)C(F)(F)C(F)(F)C(=O)NCCCOC and answer again.
Out: -11.6% (inactive)

In: Also CCOc1ccccc1NC(=O)c1ccc2c(c1)C(=O)N(CC1CCCO1)C2=O (stereo unspecified) ?
Out: -5.65% (inactive)

In: Then this compound: O=C(Nc1cccc(F)c1)OC(CN1CCCCC1)C(F)(F)F (stereo unspecified)
Out: 6.26% (inactive)

In: Do the same for Cc1ccc2nc(N(CCN3CCOCC3)C(=O)CCS(=O)(=O)c3ccccc3)sc2c1 please
Out: 0.17% (inactive)

In: What about Nc1cnn(C2OC(CO)C(O)C2O)c(=O)n1 (stereo unspecified) ?
Out: 2.98% (inactive)

In: What do we get for O=C(CSC1=NNC(c2ccccn2)S1)Nc1ccc(C(F)(F)F)cc1 (stereo unspecified) ?
Out: 3.27% (inactive)

In: Note, next up: COC1(OC)N=C(N)C2(C#N)C(c3ccccc3)NC(C)=CC12C#N (stereo unspecified)
Out: 22.3% (inactive)

In: And CN(C)CCN(C(=O)c1ccc(S(=O)(=O)N2CCCC2)cc1)c1nc2ccc(Br)cc2s1 ?
Out: 0.55% (inactive)

In: Would you mind doing CCOC(=O)N1CCC(NC(=O)c2cnn3c(C(F)(F)F)cc(-c4cccc(OC)c4)nc23)CC1 as well?
Out: -1% (inactive)

In: Nc1nc(F)nc2c1ncn2[C@@H]1O[C@H](CO)[C@@H](O)[C@@H]1O ?
Out: -2.76% (inactive)

In: Try the compound COc1cc(C2NC(=O)NC(O)(C(F)(F)F)C2C(=O)c2cccs2)ccc1O (stereo unspecified)
Out: -4.52% (inactive)

In: Okay, and O=C(NCc1ccc(OC(F)(F)F)cc1)C1CC2Cn3c(nc4ccccc43)C2N1Cc1ccccc1 (stereo unspecified) ?
Out: 2.43% (inactive)

In: Record: O=C1NC(c2ccncc2)C(C(=O)c2cccs2)C(O)(C(F)(F)F)N1 (stereo unspecified)
Out: 2.95% (inactive)
